# System: 186277-243-T-J2-PDC complex spheroid viability;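 also: spheroids exposed to drugs for 7 days; 100% = DMSO vehicle control viability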
# test_name: Anticancer human tumor 186277-243-T-J2-PDC patient-derived colon adenocarcinoma cell line growth inhibition [GQUAD]
# condition_info: second compound 1 µM; first compound 3.16 µM; hits give low values
readout_name: viability, T/C

Sample records with viability, T/C:
>>> value_reported("C=CC(=O)N1CCN(c2nc(=O)n(-c3c(C)ccnc3C(C)C)c3nc(-c4c(O)cccc4F)c(F)cc23)C(C)C1 (stereo not given) + Cc1cnc(CNC(=O)c2c(=O)c3ccc(N4CCCN(C)CC4)nc3n3c2sc2ccccc23)cn1")
"68.4%"
>>> value_reported("COc1cc(C2c3cc4c(cc3C(OC3OC5COC(C)OC5C(O)C3O)C3COC(=O)C23)OCO4)cc(OC)c1O (stereo not given) + Cc1cnc(CNC(=O)c2c(=O)c3ccc(N4CCCN(C)CC4)nc3n3c2sc2ccccc23)cn1")
"42.3%"
>>> value_reported("O=C(c1cc(Cc2n[nH]c(=O)c3ccccc23)ccc1F)N1CCN(C(=O)C2CC2)CC1 + Cc1cnc(CNC(=O)c2c(=O)c3ccc(N4CCCN(C)CC4)nc3n3c2sc2ccccc23)cn1")
"50%"
>>> value_reported("COc1ncnc(C2CC2)c1-c1ncc2cnn(Cc3ccc(-c4nc(C(F)(F)F)cn4C(C)C)cc3)c2n1 + Cc1cnc(CNC(=O)c2c(=O)c3ccc(N4CCCN(C)CC4)nc3n3c2sc2ccccc23)cn1")
"48.1%"
>>> value_reported("CC(C)n1c(=O)n(C)c2cnc3cc(F)c(-c4ccc(OCCCN5CCCCC5)nc4)cc3c21 + CN(C)c1ccc(Nc2c3ccc(NC(=O)CCN4CCCC4)cc3nc3cc(NC(=O)CCN4CCCC4)ccc23)cc1")
"111%"
>>> value_reported("CC(C)(O)C1CCC(Nc2ccc3ncc(-c4cccc(C(F)(F)F)c4)n3n2)CC1 (stereo not given) + Cc1[nH]c2ccc(F)cc2c1-c1nc2c3cccnc3c3ncccc3c2[nH]1")
"41.7%"
>>> value_reported("COc1ccc([C@@H](O)c2cc(-c3ncnc4cc(N5CCOCC5)ccc34)c(F)cc2Cl)nn1 + Cc1cnc(CNC(=O)c2c(=O)c3ccc(N4CCCN(C)CC4)nc3n3c2sc2ccccc23)cn1")
"23.5%"
>>> value_reported("C=CCn1c(=O)c2cnc(Nc3ccc(N4CCN(C)CC4)cc3)nc2n1-c1cccc(C(C)(C)O)n1 + Cc1cnc(CNC(=O)c2c(=O)c3ccc(N4CCCN(C)CC4)nc3n3c2sc2ccccc23)cn1")
"23.5%"

Take each entry in turn and give its viability, T/C.
1. Cc1cccc(N(C)C(=O)C2C(O)CCN2c2nc(C)cc(C(F)(F)F)c2C#N)c1 (stereo not given) + Cc1cnc(CNC(=O)c2c(=O)c3ccc(N4CCCN(C)CC4)nc3n3c2sc2ccccc23)cn1
2. CC(C)n1c(=O)n(C)c2cnc3cc(F)c(-c4ccc(OCCCN5CCCCC5)nc4)cc3c21 + Cc1[nH]c2ccc(F)cc2c1-c1nc2c3cccnc3c3ncccc3c2[nH]1
3. CC1COCCN1c1cc(C2(S(C)(=N)=O)CC2)nc(-c2ccnc3[nH]ccc23)n1 (stereo not given) + Cc1cnc(CNC(=O)c2c(=O)c3ccc(N4CCCN(C)CC4)nc3n3c2sc2ccccc23)cn1
4. COc1ccc([C@@H](O)c2cc(-c3ncnc4cc(N5CCOCC5)ccc34)c(F)cc2Cl)nn1 + CN(C)c1ccc(Nc2c3ccc(NC(=O)CCN4CCCC4)cc3nc3cc(NC(=O)CCN4CCCC4)ccc23)cc1

1: 64.9%; 2: 100%; 3: 31.6%; 4: 62.8%

Take each entry in turn and give its viability, T/C.
1. CC(=O)O[C@H]1C(=O)[C@@]2(C)[C@H]([C@H](OC(=O)c3ccccc3)[C@]3(O)C[C@H](OC(=O)[C@H](O)[C@@H](NC(=O)c4ccccc4)c4ccccc4)C(C)=C1C3(C)C)[C@]1(OC(C)=O)CO[C@@H]1C[C@@H]2O + Cc1[nH]c2ccc(F)cc2c1-c1nc2c3cccnc3c3ncccc3c2[nH]1
2. Nc1ccn(C2OC(CO)C(O)C2(F)F)c(=O)n1 (stereo not given) + CN(C)c1ccc(Nc2c3ccc(NC(=O)CCN4CCCC4)cc3nc3cc(NC(=O)CCN4CCCC4)ccc23)cc1
3. CCCS(=O)(=O)Nc1ccc(F)c(C(=O)c2c[nH]c3ncc(-c4ccc(Cl)cc4)cc23)c1F + Cc1cnc(CNC(=O)c2c(=O)c3ccc(N4CCCN(C)CC4)nc3n3c2sc2ccccc23)cn1

4.91%
8.1%
47.5%
